Target: dopamine transporter (DAT) (Rattus norvegicus, UniProt P23977)
Sequence (P23977 whole entry): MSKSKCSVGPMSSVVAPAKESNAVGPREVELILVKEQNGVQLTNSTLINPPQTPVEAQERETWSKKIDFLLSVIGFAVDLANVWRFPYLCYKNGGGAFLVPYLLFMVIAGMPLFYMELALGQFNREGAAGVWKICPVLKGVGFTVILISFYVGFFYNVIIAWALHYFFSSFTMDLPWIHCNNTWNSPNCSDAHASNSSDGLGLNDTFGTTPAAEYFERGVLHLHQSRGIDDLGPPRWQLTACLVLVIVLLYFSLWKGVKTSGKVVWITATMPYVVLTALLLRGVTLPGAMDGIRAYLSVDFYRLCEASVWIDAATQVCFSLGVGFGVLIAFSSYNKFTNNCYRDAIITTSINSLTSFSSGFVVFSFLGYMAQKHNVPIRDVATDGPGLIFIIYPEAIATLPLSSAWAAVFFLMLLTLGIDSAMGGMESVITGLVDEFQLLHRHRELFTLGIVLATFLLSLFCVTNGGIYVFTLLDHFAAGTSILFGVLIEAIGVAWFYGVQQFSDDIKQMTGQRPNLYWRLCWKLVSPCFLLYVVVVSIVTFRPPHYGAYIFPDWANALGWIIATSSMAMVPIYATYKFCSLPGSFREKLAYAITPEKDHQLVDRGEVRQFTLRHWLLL
Test: Dopamine reuptake ([^3H]dopamine uptake) inhibition in rat brain synaptosomes
Conditions: DA Uptake EC50 (nM ± SD), rat caudate synaptosomes; 5 nM [^3H]dopamine; 15 min, 25° C.; three experiments pooled
Doc: threshold 5 nM (exclusive). Items with IC50 beneath it return True; others return False.

Query block: Below 5 nM on IC50? Entry Nc1ccc(-c2nc(NCC(c3ccccc3)c3ccccc3)c3ccccc3n2)cn1 [compound 88]
Result block: False

Query block: What would you report for FC(F)(F)c1cc2nccn2cc1-c1nc(NCC(c2ccccc2)c2ccccc2)c2ccccc2n1 [compound 200] ?
Result block: True

Query block: How about this molecule: Cc1cc2nccn2cc1-c1nc(NCC(c2ccc(F)cc2)c2ccc(F)cc2)c2ccccc2n1 [compound 203]
Result block: True

Query block: Also Cc1cc2nccn2cc1-c1nc(NCCc2ccccc2)c2ccccc2n1 [compound 160] ?
Result block: False

Query block: How about Cc1nc(C)c(-c2nc(NCC(c3ccccc3)c3ccccc3)c3ccccc3n2)s1 [compound 54] ?
Result block: False

Query block: Now consider c1ccc(CCNc2nc(N3CCc4[nH]ccc4C3)nc3ccccc23)cc1 [compound 202] .
Result block: False

Query block: Repeat with Cc1cc2nccn2cc1-c1nc(NC[C@H](c2ccccc2)n2cccc2)c2ccccc2n1 [compound 162]
Result block: True

###

Exercise: state measured log10 IC50 for each of the compounds provided.
Molecular target: dopamine transporter (DAT) (Rattus norvegicus, UniProt P23977)
Test: Dopamine reuptake ([^3H]dopamine uptake) inhibition in rat brain synaptosomes
Details: DA Uptake EC50 (nM ± SD), rat caudate synaptosomes; 5 nM [^3H]dopamine; 15 min, 25° C.; three experiments pooled
Remember, log10 of IC50, in nM.

Query block: Which log10 IC50 is listed for CCN(CC)C(=O)[C@]1(c2ccccc2)C[C@@H]1CNc1nc(-c2ccc3nccn3c2)nc2ccccc12 ?
Result block: 1.89

Query block: And the next one, CN(C)c1ncc(-c2cccc(C(CNc3nc(-c4cnc(N(C)C)nc4)nc4ccccc34)c3ccccc3)n2)cn1 (stereo not shown) ?
Result block: 1.74

Query block: What about this compound? c1ccc(C(CNc2nc(-n3cncn3)nc3ccccc23)c2ccccc2)cc1
Result block: 2.83

Query block: Then c1ccc2c(NCC(c3ccncc3)c3ccncc3)nc(-c3ccc4[nH]ccc4c3)nc2c1 ?
Result block: 2.15

Query block: Subsequent entry: O=C(Nc1nc(-c2ccc3nccn3c2)nc2ccccc12)C(c1ccccc1)c1ccccc1
Result block: 2.20

Query block: Let us now turn to Nc1ncc(-c2nc(NCC(c3ccccc3)c3ccccn3)c3ccccc3n2)cn1 (stereo not shown)
Result block: 2.59

Query block: And what about the compound Cc1cc2nccn2cc1-c1nc(NCC(c2ccncc2)c2ccncc2)c2ccccc2n1 ?
Result block: 1.18

Query block: Ok, now COc1ncc(-c2nc(NCC(c3ccccc3)c3ccccc3)c3ccccc3n2)cn1
Result block: 1.56

Query block: Thanks! And c1ccc(C(CNc2nc(-c3ccc4ncccc4c3)nc3ccccc23)c2ccccc2)cc1 ?
Result block: 1.41

Query block: Entry to check: c1ccc(C(CNc2nc(-c3ccc4[nH]ccc4c3)nc3ccccc23)c2cccnc2)cc1 (stereo not shown)
Result block: 1.60

Query block: Check COc1cc2nc(-c3cnc(N(C)C)nc3)nc(NCC(c3ccccc3)c3ccccc3)c2cc1OC too.
Result block: 2.86

Query block: Please do the same for c1ccc(C(CNc2nc(-c3ccc4cnccc4c3)nc3ccccc23)c2ccccc2)cc1 as well.
Result block: 2.29

Query block: Cool, now c1ccc(C(CNc2nc(-c3ccc4c(c3)NCCC4)nc3ccccc23)c2ccccc2)cc1
Result block: 2.12

Query block: Lookup Cc1c(-c2nc(NCC(c3ccccc3)c3ccccc3)c3ccccc3n2)ccc2nccn12
Result block: 1.53

Query block: Same thing, different compound: c1ccc(C(Nc2nc(-c3ccsc3)nc3ccccc23)c2ccccc2)cc1
Result block: 2.89

Query block: Repeat with c1ccc(C(CNc2nc(-c3ccc4nnnn4c3)nc3ccccc23)c2ccccc2)cc1
Result block: 2.36

###

Molecular target: dopamine transporter (DAT) (Rattus norvegicus, UniProt P23977)
Test: Dopamine reuptake ([^3H]dopamine uptake) inhibition in rat brain synaptosomes
Details: read-out: DA Uptake Emax (% I ± SD)
Measured quantity: Emax

Query block: Request - read-out Emax | tested on dopamine transporter (DAT) (Rattus norvegicus, UniProt P23977) | molecule c1ccc(C(CNc2nc(-c3cnc4nccn4c3)nc3ccccc23)c2ncccn2)cc1 (stereo not shown)
Result block: 57%

Query block: Also need c1ccc(C2CN(c3nc(-c4ccc5nccn5c4)nc4ccccc34)Cc3ccccc32)cc1 (stereo not shown) , thanks.
Result block: 70%

Query block: Entry c1ccc(C(CNc2nc(-c3ccc4c(c3)NCCC4)nc3ccccc23)c2ccccc2)cc1 please
Result block: 69%

Query block: Try the molecule c1ccc(C(CNc2nc(-c3cccs3)nc3ccccc23)c2ccccc2)cc1
Result block: 78%

Query block: Another: c1ccc(C(CNc2nc(-c3cnc(N4CCCCC4)nc3)nc3ccccc23)c2ccccc2)cc1
Result block: 100%

Query block: CC(C)(C)OC(=O)n1cc(-c2nc(NCC(c3ccccc3)c3ccccc3)c3ccccc3n2)c2cccnc21 , same question.
Result block: < 100%

Query block: Check c1ccc(C(CCNc2nc(-c3ccsc3)nc3ccccc23)c2ccccc2)cc1 too.
Result block: 83%

Query block: Entry c1ccc(C(CNc2nc(-c3cccc4[nH]ncc34)nc3ccccc23)c2ccccc2)cc1 please
Result block: 72%

Query block: Same again, this time with CS(=O)(=O)n1ccc2cc(-c3nc(NCC(c4ccccc4)c4ccccc4)c4ccccc4n3)ccc21
Result block: 73%

Query block: # repeat for Cc1cc2nccn2cc1-c1nc(NCCc2ccncc2)c2ccccc2n1
Result block: 72%

Query block: Would you kindly repeat that for c1ccc(CC(CNc2nc(-c3ccc4nccn4c3)nc3ccccc23)c2ccccc2)cc1 (stereo not shown) ?
Result block: 78%

Query block: Now give it for Cn1ncc2cc(-c3nc(NCC(c4ccccc4)c4ccccc4)c4ccccc4n3)ccc21 too.
Result block: 66%

Query block: Entry Cc1cc2nccn2cc1-c1nc(NCC(c2ccc(F)cc2)c2ccc(F)cc2)c2ccccc2n1 please
Result block: 72%

Query block: Continue with Cc1cc2nccn2cc1-c1nc(NCC(Oc2ccccc2)c2ccccc2)c2ccccc2n1 (stereo not shown)
Result block: 75%

Query block: Follow-up entry: Nc1ncc(-c2nc(NCC(O)(c3ccccc3)c3ccccc3)c3ccccc3n2)cn1
Result block: 90%

Query block: Now try c1ccc(C(CNc2nc(-c3ccc4[nH]ccc4c3)nc3ccccc23)c2cccnc2)cc1 (stereo not shown) .
Result block: 74%

###

Molecular target: dopamine transporter (DAT) (Rattus norvegicus, UniProt P23977)
Assay: Dopamine reuptake ([^3H]dopamine uptake) inhibition in rat brain synaptosomes
Details: read-out: DA Uptake Emax (% I ± SD)
Decision: Emax >= 70% yields label 1, all other cases yield label 0.

Query block: Identify whether the reported Emax of the following compound is 70% or greater: CN(C)c1ncc(-c2cccc(C(CNc3nc(-c4cnc(N(C)C)nc4)nc4ccccc34)c3ccccc3)n2)cn1 (stereo not shown)
Result block: label 0

Query block: // query: COc1ccc2nc(-c3cnc(N(C)C)nc3)nc(NCC(c3ccccc3)c3ccccc3)c2c1
Result block: label 0

Query block: Same question, Cc1cc2nccn2cc1-c1nc(NC(CCc2ccccc2)c2ccccc2)c2ccccc2n1 (stereo not shown) this time
Result block: label 1

Query block: Next compound: CC(CNc1nc(-c2ccc3nccn3c2)nc2ccccc12)(c1ccccc1)c1ccccc1
Result block: label 1

Query block: Now consider CC(C)(C)OC(=O)N[C@H](CNc1nc(-c2ccc3nccn3c2)nc2ccccc12)c1ccccc1 .
Result block: label 0

Query block: Moving on to c1ccc2c(NCC(c3ccncc3)c3ccncc3)nc(-c3ccc4[nH]ccc4c3)nc2c1
Result block: label 1

Query block: Now the same for c1ccc(C(CNc2nc(-c3ccc4[nH]ccc4c3)nc3ccccc23)c2cccc(-c3ccc4[nH]ccc4c3)n2)cc1 (stereo not shown)
Result block: label 0

Query block: Consider next the compound c1ccc(C(CNc2nc(-c3ccc4nccn4c3)nc3ccccc23)N2CCCC2)cc1 (stereo not shown) in the same way.
Result block: label 1

Query block: # repeat for CN(C)Cc1c[nH]c2ccc(-c3nc(NCC(c4ccccc4)c4ccccc4)c4ccccc4n3)cc12
Result block: label 1

###

Target: dopamine transporter (DAT) (Rattus norvegicus)
Assay: Dopamine reuptake ([^3H]dopamine uptake) inhibition in rat brain synaptosomes
Conditions: read-out: DA Uptake Emax (% I ± SD)
Hi there, I'd appreciate the recorded Emax for every entry that follows.
Answer format: numeric, % implied, no suffix.

Query block: Looking for the measured Emax of Cc1cc2nccn2cc1-c1nc(NCC(c2ccccc2)N(C)C)c2ccccc2n1 (stereo not shown) [compound 196] , can you help?
Result block: 77

Query block: Consider next the compound c1ccc(C(CNc2nc(-c3cccc4cccnc34)nc3ccccc23)c2ccccc2)cc1 [compound 141] in the same way.
Result block: 98

Query block: Then this compound: c1ccc(C(CNc2nc(-c3ccc4scnc4c3)nc3ccccc23)c2ccccc2)cc1 [compound 145]
Result block: 67

Query block: What do you have for Nc1ncc(-c2nc(NCC(c3ccccc3)c3ccncc3)c3ccccc3n2)cn1 (stereo not shown) [compound 107] ?
Result block: 81

Query block: What do you have for CC(=O)N[C@H](CNc1nc(-c2ccc3nccn3c2)nc2ccccc12)c1ccccc1 [compound 149] ?
Result block: 80

Query block: Then what about the compound CC(C)C(CNc1nc(N2CCc3[nH]ccc3C2)nc2ccccc12)c1ccccc1 (stereo not shown) [compound 201] ?
Result block: 88

Query block: Can you check CCN(CC)C(=O)[C@]1(c2ccccc2)C[C@@H]1CNc1nc(-c2cn3ccnc3cc2C)nc2ccccc12 [compound 171] next?
Result block: 73

Query block: // query: O=C(Nc1nc(-c2ccc3nccn3c2)nc2ccccc12)C(c1ccccc1)c1ccccc1 [compound 144]
Result block: 61

Query block: What do you have for c1ccc(C(CNc2nc(-c3ccc4nccn4c3)nc3ccccc23)N2CCCCC2)cc1 (stereo not shown) [compound 119] ?
Result block: 83

Query block: Likewise for c1ccc(C(CNc2nc(N3CCc4ccccc4C3)nc3ccccc23)c2ccccc2)cc1 [compound 193] ?
Result block: 77

Query block: How about Cn1ccc2cc(-c3nc(NCC(c4ccccc4)c4cccnc4)c4ccccc4n3)ccc21 (stereo not shown) [compound 137] ?
Result block: 76

Query block: Continue with c1ccc(C(CNc2nc(-c3cccc4[nH]ccc34)nc3ccccc23)c2ccccc2)cc1 [compound 32]
Result block: 68

Query block: Field entry: c1ccc2c(NCC(c3ccncc3)c3ccncc3)nc(N3CCc4[nH]ccc4C3)nc2c1 [compound 174]
Result block: 88

Query block: And c1ccc(C(CNc2nc(-c3cnc4ccnn4c3)nc3ccccc23)c2ccccc2)cc1 [compound 199] ?
Result block: 73

Query block: Here is the next compound: c1ccc(C(CNc2nc(-c3ccc4nnnn4c3)nc3ccccc23)c2ccccc2)cc1 [compound 108]
Result block: 47

Query block: c1ccc(C(CCNc2nc(-c3cccnc3)nc3ccccc23)c2ccccc2)cc1 [compound 1] ?
Result block: 82

Query block: Further, for c1ccc(C(CNc2nc(-c3ccncc3)nc3ccccc23)c2ccccc2)cc1 [compound 39] ?
Result block: 78

Query block: Same again, this time with CN(C)c1ccc(-c2nc(NC(c3ccccc3)c3ccccc3)c3ccccc3n2)cn1 [compound 92]
Result block: 68

Query block: Consider next the compound COCCNc1ncc(-c2nc(NCC(c3ccccc3)c3ccccc3)c3ccccc3n2)cn1 [compound 47] in the same way.
Result block: 73

Query block: Cool, now Nc1ncc(-c2nc(NCC(c3ccccc3)C3CCCCC3)c3ccccc3n2)cn1 (stereo not shown) [compound 101]
Result block: 75

Query block: Also Oc1nc2cc(-c3nc(NCC(c4ccccc4)c4ccccc4)c4ccccc4n3)ccc2[nH]1 [compound 79] , if possible.
Result block: 94

Query block: Proceed to Cc1cc2nccn2cc1-c1nc(NCC(c2ccccc2)C(C)C)c2ccccc2n1 (stereo not shown) [compound 169]
Result block: 64

Query block: Param item: c1ccc(C(CNc2nc(N3CCc4[nH]c5ccccc5c4C3)nc3ccccc23)c2ccccc2)cc1 [compound 191]
Result block: 78

Query block: Now try c1ccc(C(CNc2nc(-c3c[nH]c4ccccc34)nc3ccccc23)c2ccccc2)cc1 [compound 82] .
Result block: 93

Query block: Next entry: c1ccc(C(CNc2nc(-c3ccc4nccn4c3)nc3ccccc23)c2ccncc2)cc1 (stereo not shown) [compound 106]
Result block: 77

Query block: Then what about the compound c1ccc(C(CNc2nc(-c3cn[nH]c3)nc3ccccc23)c2ccccc2)cc1 [compound 75] ?
Result block: 100

Query block: What about this compound? Cc1cc2nccn2cc1-c1nc(NCC(c2ccncc2)c2ccc[nH]2)c2ccccc2n1 (stereo not shown) [compound 185]
Result block: 71

Query block: What would you report for c1ccc(C(CNc2nc(N3Cc4ccccc4C3)nc3ccccc23)c2ccccc2)cc1 [compound 189] ?
Result block: 83

Query block: What about this compound? c1ccc(C(CCNc2nc(-c3ccc4nccn4c3)nc3ccccc23)c2ccccc2)cc1 [compound 87]
Result block: 75

Query block: Same question, Cc1cc2nccn2cc1-c1nc(NCCc2ccccc2)c2ccccc2n1 [compound 160] this time
Result block: 69

Query block: Same question, c1ccc(C(CCNc2nc(-c3cccs3)nc3ccccc23)c2ccccc2)cc1 [compound 7] this time
Result block: 100

Query block: One more compound: COc1ccc2nc(-c3cccnc3)nc(NCC(c3ccccc3)c3ccccc3)c2c1 [compound 59]
Result block: 56

Query block: Field entry: Cn1ncc2c(-c3nc(NCC(c4ccccc4)c4ccccc4)c4ccccc4n3)cccc21 [compound 65]
Result block: 50
